Test system: Klebsiella pneumoniae KAE
assay-comment: MIC, standard agar-dilution assay (Table V)
Assay type: cell-based
test-conditions: Klebsiella pneumoniae
measured-property: MIC

{"compound": "CCC1OC(=O)CC(O)C(C)C(OC2OC(C)C(O)C(N(C)C)C2O)C(CC=O)CC(C)C(=O)C=CC(C)=CC1CSc1n[nH]c(=O)c(=O)n1C (stereo not drawn)", "target": "Klebsiella pneumoniae KAE", "MIC": "> 128 µg/mL"}
{"compound": "CCC1OC(=O)CC(O)C(C)C(OC2OC(C)C(O)C(N(C)C)C2O)C(CC=O)CC(C)C(=O)C=CC(C)=CC1CSc1nnnn1C (stereo not drawn)", "target": "Klebsiella pneumoniae KAE", "MIC": "> 128 µg/mL"}
{"compound": "CCC1OC(=O)CC(O)C(C)C(OC2OC(C)C(O)C(N(C)C)C2O)C(CC=O)CC(C)C(=O)C=CC(C)=CC1CSc1ccccc1 (stereo not drawn)", "target": "Klebsiella pneumoniae KAE", "MIC": "64 µg/mL"}

*Q* Endpoint output: MIC of CCC1OC(=O)CC(O)C(C)C(OC2OC(C)C(O)C(N(C)C)C2O)C(CC=O)CC(C)C(=O)C=CC(C)=CC1CNC(=O)[C@H](NC(=O)OC(C)(C)C)c1ccccc1 (single isomer, unassigned) . Value?
*A* > 128 µg/mL

*Q* Endpoint output: MIC of CCC1OC(=O)CC(O)C(C)C(OC2OC(C)C(O)C(N(C)C)C2O)C(CC=O)CC(C)C(=O)C=CC(C)=CC1CF (stereo not drawn) . Value?
*A* 64 µg/mL

*Q* Endpoint output: MIC of CCC1OC(=O)CC(O)C(C)C(OC2OC(C)C(O)C(N(C)C)C2O)C(CC=O)CC(C)C(=O)C=CC(C)=CC1CNC(=O)Cc1ccccc1 (stereo not drawn) . Value?
*A* > 128 µg/mL
